FYI, the data here is from paper PMC12771125.

# System: HepG2 cells
# procedure-text: HepG2 cytotoxicity assay (resazurin, 72 h)
# Type: cell-based, human
# experimental-parameters: Homo sapiens, HepG2, 72 h; read-out: HepG2 pEC50 (converted)
Provide the recorded EC50 for the entries that follow.
Numbers only here, please. The scale is µM.

Query block: Param item = O=C(Nc1nc2c(Cl)c(Cl)ccc2s1)c1ccccc1 [Compound 4g] ; retrieve measured EC50.
Result block: 100

Query block: Request: N#Cc1ccc(NC(=O)c2cc(Cl)ccc2O)cc1Cl [Compound 1e]
Result block: 5.01

Query block: Request: COc1cc(N2CCOCC2)ccc1Nc1ncc(Cl)c(Nc2ccccc2NS(C)(=O)=O)n1 [Compound 2a, reference compound]
Result block: 3.98

Query block: Request: O=C(Nc1ccc([N+](=O)[O-])cc1Cl)c1cc(Cl)ccc1O [Compound 1a, Niclosamide, reference compound]
Result block: 3.16

Query block: Request: NCCN(C(=O)c1ccccc1Cl)c1ccc(Cl)cc1 [Compound 1l]
Result block: 79.4

Query block: Request: NCCN(C(=O)c1ccc(F)cc1Cl)c1ccc(Cl)cc1 [Compound 1m]
Result block: 63.1

Query block: Request: CN(c1ccccc1Nc1nc(Nc2ccc(CN3CCOCC3)cc2)ncc1Cl)S(C)(=O)=O [Compound 2d]
Result block: 0.398

Query block: Request: Oc1ccc(Nc2ccnc3cc(Cl)ccc23)cc1CN1CCCC1 [Compound 5b]
Result block: 12.6

Query block: Request: O=C(Nc1nc(-c2ccccn2)cs1)Nc1ccc(F)cc1F [Compound 3b]
Result block: 7.94

Query block: Request: Fc1cccc(CN2CCC3(CCNCC3)CC2)c1 [Compound 9d]
Result block: 63.1

Query block: Request: O=C(Nc1cccc(Cl)c1)c1cc(Cl)ccc1O [Compound 1f]
Result block: 6.31

Query block: Request: CNC(=O)c1ccccc1Nc1nc(Nc2ccc(N3CCOCC3)cc2OC)ncc1Cl [Compound 2b]
Result block: 2

Query block: Request: Cc1sc(NC(=O)Nc2ccc(F)cc2F)nc1-c1ccccn1 [Compound 3m]
Result block: 12.6

Query block: Request: CS(=O)(=O)Nc1cc(F)ccc1Nc1nc(Nc2ccc(C(=O)N3CCOCC3)cc2)ncc1Cl [Compound 2c]
Result block: 7.94

Query block: Request: CS(=O)(=O)Nc1cc(F)ccc1Nc1nc(Nc2ccc(CN3CCNCC3)cc2)ncc1Cl [Compound 2e]
Result block: 15.8

Query block: Request: NCCN(C(=O)c1ccc(Cl)cc1Cl)c1ccc(OCc2ccc(Cl)cc2)cc1 [Compound 1b]
Result block: 5.01

Query block: Request: O=C(Nc1nc(-c2ccccc2)cs1)Nc1ccc(F)cc1F [Compound 3e]
Result block: 50.1
